So I've got a bunch of compounds here, and I need their Ki values.
- target system: Protein kinase C alpha type (Homo sapiens, UniProt P17252)
- experiment summary: Displacement of [3H]PDBu from protein kinase C Alpha-C1A domain
One number for each entry, in µM.

Worked examples, 2 compounds total:
smiles repr: CCCCCCCCCCCN1c2ccccc2C[C@@H](CO)OC(=O)[C@@H]1C(C)C
target system: Protein kinase C alpha type (Homo sapiens, UniProt P17252)
Ki, µM: 4.58

smiles repr: CCCCCCCCCCc1cccc2c1C[C@@H](CO)OC(=O)[C@H](C(C)C)N2C
target system: Protein kinase C alpha type (Homo sapiens, UniProt P17252)
Ki, µM: 0.87

The compound `CCCCCCCCCCc1ccc2c(c1)N(C)[C@@H](C(C)C)C(=O)O[C@H](CO)C2` , when measured on Protein kinase C alpha type (Homo sapiens, UniProt P17252), yielded Ki of 0.412

====

- target system: UniProt:P05771
- Sequence (P05771 whole entry, the tested form may be a part): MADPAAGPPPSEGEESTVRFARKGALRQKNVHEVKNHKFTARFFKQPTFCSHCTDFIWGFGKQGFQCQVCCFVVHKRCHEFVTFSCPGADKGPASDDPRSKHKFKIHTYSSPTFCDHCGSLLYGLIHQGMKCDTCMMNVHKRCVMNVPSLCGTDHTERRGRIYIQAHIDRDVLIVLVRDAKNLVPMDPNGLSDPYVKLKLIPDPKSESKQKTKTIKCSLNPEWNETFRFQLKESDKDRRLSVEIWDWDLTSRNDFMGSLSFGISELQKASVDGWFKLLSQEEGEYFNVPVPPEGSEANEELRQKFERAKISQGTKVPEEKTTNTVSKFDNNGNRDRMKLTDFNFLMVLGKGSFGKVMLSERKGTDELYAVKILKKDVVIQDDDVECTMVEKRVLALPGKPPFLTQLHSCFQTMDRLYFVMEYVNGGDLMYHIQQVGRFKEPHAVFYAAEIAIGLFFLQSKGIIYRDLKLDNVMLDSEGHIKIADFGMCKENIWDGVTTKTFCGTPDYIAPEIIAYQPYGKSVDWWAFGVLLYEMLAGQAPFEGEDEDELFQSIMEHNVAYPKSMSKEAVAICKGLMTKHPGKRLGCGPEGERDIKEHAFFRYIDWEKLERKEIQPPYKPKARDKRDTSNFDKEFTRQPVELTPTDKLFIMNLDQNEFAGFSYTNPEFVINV
- experiment summary: Displacement of [3H]PDBu from protein kinase C Beta-C1A domain
measured property: pKi
Give bare numbers, as −log10 of the molar value.

Worked examples, 2 compounds total:
smiles repr: CCCCCCCCCCc1ccc2c(c1)N(C)[C@@H](C(C)C)C(=O)O[C@H](CO)C2
target system: UniProt:P05771
observed: 5.94
//
smiles repr: CCCCCCCCCCc1cccc2c1C[C@@H](CO)OC(=O)[C@H](C(C)C)N2C
target system: UniProt:P05771
observed: 6.27

Consider the record given below.
Field pKi (entry `CCCCCCCCCCCN1c2ccccc2C[C@@H](CO)OC(=O)[C@@H]1C(C)C` ) reads 5.33

====

- target system: UniProtKB P24723
- Sequence (P24723 whole entry, the tested form may be a part): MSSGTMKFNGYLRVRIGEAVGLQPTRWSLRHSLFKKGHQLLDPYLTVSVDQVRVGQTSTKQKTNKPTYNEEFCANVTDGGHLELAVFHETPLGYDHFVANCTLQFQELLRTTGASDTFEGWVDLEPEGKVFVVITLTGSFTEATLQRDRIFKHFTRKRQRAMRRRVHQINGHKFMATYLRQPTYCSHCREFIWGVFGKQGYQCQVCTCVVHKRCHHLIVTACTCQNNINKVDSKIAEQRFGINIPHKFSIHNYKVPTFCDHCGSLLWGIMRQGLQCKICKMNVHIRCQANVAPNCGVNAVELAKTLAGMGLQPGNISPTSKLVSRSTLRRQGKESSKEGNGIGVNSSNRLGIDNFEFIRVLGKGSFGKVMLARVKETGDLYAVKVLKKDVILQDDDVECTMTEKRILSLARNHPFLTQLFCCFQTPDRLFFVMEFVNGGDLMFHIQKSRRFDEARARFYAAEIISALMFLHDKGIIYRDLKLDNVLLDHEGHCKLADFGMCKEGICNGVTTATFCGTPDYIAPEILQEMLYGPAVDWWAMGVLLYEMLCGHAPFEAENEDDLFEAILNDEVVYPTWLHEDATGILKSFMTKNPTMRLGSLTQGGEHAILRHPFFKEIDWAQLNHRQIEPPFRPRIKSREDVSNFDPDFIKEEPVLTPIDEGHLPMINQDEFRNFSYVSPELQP
- experiment summary: Displacement of [3H]PDBu from protein kinase C eta-C1B domain
measured property: pKi
One number for each entry, as −log10 of the molar value.

smiles repr: CCCCCCCCCCCN1c2ccccc2C[C@@H](CO)OC(=O)[C@@H]1C(C)C
pKi: 6.72

smiles repr: CCCCCCCCCCc1cccc2c1C[C@@H](CO)OC(=O)[C@H](C(C)C)N2C
pKi: 6.95

Field pKi (entry `CCCCCCCCCCc1ccc2c(c1)N(C)[C@@H](C(C)C)C(=O)O[C@H](CO)C2` ) reads 7.43

====

- target system: Protein kinase C alpha type (Homo sapiens)
- experiment summary: Displacement of [3H]PDBu from protein kinase C Alpha-C1B domain
So I've got a bunch of compounds here, and I need their Ki values.

// for each compound below, give its Ki
1. CCCCCCCCCCc1cccc2c1C[C@@H](CO)OC(=O)[C@H](C(C)C)N2C
2. CCCCCCCCCCc1ccc2c(c1)N(C)[C@@H](C(C)C)C(=O)O[C@H](CO)C2

1: > 10 µM; 2: 4.05 µM

The compound `CCCCCCCCCCCN1c2ccccc2C[C@@H](CO)OC(=O)[C@@H]1C(C)C` , when measured on Protein kinase C alpha type (Homo sapiens), yielded Ki of > 10 µM
